Recorded values, source ChEMBL document CHEMBL5729324.

Biological target: TGF-beta receptor type-1 (Homo sapiens, UniProt P36897)
Sequence (P36897 whole entry): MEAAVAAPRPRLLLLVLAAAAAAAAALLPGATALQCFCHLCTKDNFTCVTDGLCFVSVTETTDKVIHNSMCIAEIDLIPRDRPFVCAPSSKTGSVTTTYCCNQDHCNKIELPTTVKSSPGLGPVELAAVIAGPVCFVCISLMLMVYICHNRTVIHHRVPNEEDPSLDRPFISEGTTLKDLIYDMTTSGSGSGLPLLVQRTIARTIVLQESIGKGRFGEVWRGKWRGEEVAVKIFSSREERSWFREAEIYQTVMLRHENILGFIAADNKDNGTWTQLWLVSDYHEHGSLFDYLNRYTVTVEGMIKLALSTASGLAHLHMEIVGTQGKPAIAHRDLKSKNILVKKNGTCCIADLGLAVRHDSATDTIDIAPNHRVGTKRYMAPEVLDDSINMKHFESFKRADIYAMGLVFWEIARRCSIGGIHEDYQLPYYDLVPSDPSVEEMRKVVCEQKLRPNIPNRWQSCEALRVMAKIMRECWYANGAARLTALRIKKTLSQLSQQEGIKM
pIC50: −log10 of the molar value.
property_label: pIC50

Study these solved cases before continuing.
[
  {
    "sample_smiles": "Cc1cccc(/C=C\\c2ccc3ncc(C(=O)NCCN4CCOCC4)n3c2)n1",
    "measured_on": "TGF-beta receptor type-1 (Homo sapiens, UniProt P36897)",
    "value_measured": 7.36
  },
  {
    "sample_smiles": "Cc1cccc(/C=C(/C(=O)N2CCCCC2)c2ccc3ncc(C(N)=O)n3c2)n1",
    "measured_on": "TGF-beta receptor type-1 (Homo sapiens, UniProt P36897)",
    "value_measured": 7.24
  },
  {
    "sample_smiles": "Cc1cccc(/C=C(/C(N)=O)c2ccc3ncc(C(N)=O)n3c2)n1",
    "measured_on": "TGF-beta receptor type-1 (Homo sapiens, UniProt P36897)",
    "value_measured": 6.48
  }
]

I = Cc1ccc(F)c(/C=C\c2ccc3ncc(C(N)=O)n3c2)n1
II = Cc1cccc(/C=C(/C(=O)N2CCCCC2)c2ccc3ncc(C#N)n3c2)n1
III = CNC(=O)/C(=C/c1cccc(C)n1)c1ccc2ncc(C(N)=O)n2c1
IV = Cc1cccc(/C=C\c2ccc3ncc(C#N)n3c2)n1
V = COc1cccc(/C=C\c2ccc3ncc(C(N)=O)n3c2)n1
### Prompt Order field: pIC50 | Direction: descending (largest first) In plain terms: list the labels in the order you were asked to.
### Response I, V, IV, III, II
